# target of assay: human melanin concentrating hormone type 2 receptor (MCH-2R) (human, UniProt Q969V1 1-340)
# Sequence (Q969V1 whole entry, form in doubt): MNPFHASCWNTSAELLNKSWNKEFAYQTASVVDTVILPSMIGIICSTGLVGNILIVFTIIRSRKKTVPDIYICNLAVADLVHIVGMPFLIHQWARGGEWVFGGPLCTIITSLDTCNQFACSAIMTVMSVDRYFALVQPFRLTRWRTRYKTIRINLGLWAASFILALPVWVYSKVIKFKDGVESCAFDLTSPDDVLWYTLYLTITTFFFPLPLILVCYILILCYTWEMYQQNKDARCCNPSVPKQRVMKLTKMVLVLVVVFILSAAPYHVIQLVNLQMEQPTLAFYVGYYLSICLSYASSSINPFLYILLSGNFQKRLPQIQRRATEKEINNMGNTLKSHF
# test details: cell-based or functional assay
Bridges are numbered along the chain shown (N, C = ends). [ ]: non-standard residue; d: D form. dCha = N[C@H](CC1CCCCC1)C(=O)O
attribute measured: Activation % at 10 µM (aequorin functional assay) (%)

A = Ac-RCML[dCha]RVYRPC-NH2 (disulfide 2-11 (inferred), also called D-Cha^10) [SEQ. ID. NO. 16]
B = Ac-RCML[dN]RVYRPC-NH2 (disulfide 2-11 (inferred), also called D-Asn^10) [SEQ. ID. NO. 18]
Select the item with the higher value of Activation % at 10 µM (aequorin functional assay) from the options A and B listed. Selection: enter the item's label.
B
(B: 106%, A: 74%)
